Target: T1, Human CD3eg linker (human)
T1 construct: single-chain construct; also called recombinant human CD3
T1 chain: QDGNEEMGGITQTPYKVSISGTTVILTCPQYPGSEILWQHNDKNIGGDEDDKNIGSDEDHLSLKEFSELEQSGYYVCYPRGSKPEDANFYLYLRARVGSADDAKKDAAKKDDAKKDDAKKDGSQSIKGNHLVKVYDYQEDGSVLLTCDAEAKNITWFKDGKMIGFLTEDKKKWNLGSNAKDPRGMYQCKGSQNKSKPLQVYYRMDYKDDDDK
Experiment: SPR, vs unmutated H183/L072
Known fold change of affinity of a selection of binders
Express your answer in fold, writing the number without its unit.

binder="dBBDu183H V95G/dBBDu072L (antibody, name in Kabat numbering, V domains shown) VH: QVQLVESGGGLVQPGRSLRLSCAASGFTFSNAWMHWVRQAPGKGLEWVAQIKDKGNAYAAYYAPSVKGRFTISRDDSKNSIYLQMNSLKTEDTAVYYCHYGHYASASTVLPAFGVDAWGQGTTVTVSS VL: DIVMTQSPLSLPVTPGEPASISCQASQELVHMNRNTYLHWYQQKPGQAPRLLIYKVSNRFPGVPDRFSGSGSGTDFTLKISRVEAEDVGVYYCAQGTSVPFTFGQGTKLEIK" value_observed=0

Continue with the next binder.
Give the reported value of fold change of affinity for this record: dBBDu183H K64G/dBBDu072L (antibody, name in Kabat numbering, V domains shown) VH: QVQLVESGGGLVQPGRSLRLSCAASGFTFSNAWMHWVRQAPGKGLEWVAQIKDKGNAYAAYYAPSVGGRFTISRDDSKNSIYLQMNSLKTEDTAVYYCHYVHYASASTVLPAFGVDAWGQGTTVTVSS VL: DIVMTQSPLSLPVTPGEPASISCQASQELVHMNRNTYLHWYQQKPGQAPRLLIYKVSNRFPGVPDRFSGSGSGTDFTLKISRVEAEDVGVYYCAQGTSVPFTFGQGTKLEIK
1
